B1: TMEM120A (parent)
chain: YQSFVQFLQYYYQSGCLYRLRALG

variants of: B1; experiment: protein stability index of a GFP-peptide fusion (GPS, HEK-293T) (PSI 1-6); higher = more stable; settings: c terminus: a fixed tail appended;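 further: lentivirally expressed fusions sorted by FACS into six bins by GFP to DsRed ratio, PSI derived from sequencing read proportions per bin multiplied by bin number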
Attribute: protein stability index
Lab note: jot the number down without any unit.

variant spec	protein stability index
S3R	2.35
L20Q	4.03
Q13L	2.38
R19C	2.93
Q9W	2.71
Y1E	1.49
Y1Q	2.83
A22F	1.59

Request: Query: protein stability index; subject: Q9P
Result: 1.25

Request: And for L20A ?
Result: 1.85

Request: And for Y12G ?
Result: 2.04
